Measured Tmax of individual entries
PROCEDURE TEXT: Tmax in Sprague-Dawley rat at 20 mg/kg, IG measured upto 1440 mins by LC-MS/MS analysis
Type: ADME, organism-based
MEASUREMENT CONDITIONS: in vivo, po
Kindly provide the numeric value in min only, without the unit symbol.

COCCCNC(=O)c1ccc(Cn2c(SCC3CCCCC3)nc3ccncc32)cc1: 16.7

// below: Tmax requested for another molecule
Query: Annotate the molecule O=C(c1ccc(Cn2c(SCC3CCCCC3)nc3ccncc32)cc1)N1CCNCC1 with its measured Tmax.
Result: 14.7

----------
Measured bioavailability of individual entries
PROCEDURE TEXT: Bioavailability in Sprague-Dawley rat at 20 mg/kg, ip measured upto 720 mins by LC-MS/MS analysis
Assay type: ADME, organism-based
MEASUREMENT CONDITIONS: in vivo
Kindly provide the numeric value in % only, without the unit symbol.

COCCCNC(=O)c1ccc(Cn2c(SCC3CCCCC3)nc3ccncc32)cc1: 11.5

// below: bioavailability requested for another compound
Query: Annotate the compound O=C(c1ccc(Cn2c(SCC3CCCCC3)nc3ccncc32)cc1)N1CCNCC1 with its measured bioavailability.
Result: 13.2

----------
PROCEDURE TEXT: Half life in Sprague-Dawley rat at 20 mg/kg, IG measured upto 1440 mins by LC-MS/MS analysis
Type: ADME, organism-based
MEASUREMENT CONDITIONS: in vivo, po
Measured half-life of individual entries
Kindly provide the numeric value in h only, without the unit symbol.

O=C(c1ccc(Cn2c(SCC3CCCCC3)nc3ccncc32)cc1)N1CCNCC1: 3.93

// below: half-life requested for another molecule
Query: Annotate the molecule COCCCNC(=O)c1ccc(Cn2c(SCC3CCCCC3)nc3ccncc32)cc1 with its measured half-life.
Result: 2.14

----------
Measured IC50 at 48 h of individual entries
PROCEDURE TEXT: Cytotoxicity against human THP-1 cells assessed as cellular proliferation inhibition measured after 48 hrs by MTT assay
Type: toxicity, cell-based

For orientation, consider the following solved cases.
COCCCNC(=O)c1ccc(Cn2c(SCc3cc(F)cc(F)c3)nc3ccncc32)cc1: > 100 µM
COCCCNC(=O)c1ccc(Cn2c(SCC3CC3)nc3ccncc32)cc1: > 100 µM
COCCCNC(=O)c1ccc(Cn2c(SCc3ccc(Br)cc3)nc3ccncc32)cc1: 90.3 µM
COc1ccc(C2=NN(C(=O)CSc3nnc(CNC(=O)COc4ccccc4)n3CCc3ccccc3)C(c3ccc(OC)cc3)C2)cc1 (centres undefined): > 100 µM
CCOC(=O)c1ccc(Cn2c(SCC3CCCCC3)nc3ccncc32)cc1: > 100 µM

Query: Annotate the compound COCCCNC(=O)c1ccc(Cn2c(SCc3ccc(F)cc3)nc3ccncc32)cc1 with its measured IC50 at 48 h.
Result: > 100 µM

Query: Annotate the compound COCCCNC(=O)c1ccc(Cn2c(SCc3ccccc3F)nc3ccncc32)cc1 with its measured IC50 at 48 h.
Result: 53.3 µM

Query: Annotate the compound COCCCNC(=O)c1ccc(Cn2c(SCc3ccc(C(F)(F)F)cc3)nc3ccncc32)cc1 with its measured IC50 at 48 h.
Result: 51.1 µM

Query: Annotate the compound COCCCNC(=O)c1ccc(Cn2c(SCc3cc(C)cc(C)c3)nc3ccncc32)cc1 with its measured IC50 at 48 h.
Result: > 100 µM

----------
PROCEDURE TEXT: Cytotoxicity against human THP-1 cells assessed as cellular proliferation inhibition measured after 48 hrs by MTT assay
Assay type: toxicity, cell-based
Measured IC50 at 48 h of individual entries

CNC(=O)c1ccc(Cn2c(SCC3CCCCC3)nc3ccncc32)cc1: > 100 µM
O=C(c1ccc(Cn2c(SCC3CCCCC3)nc3ccncc32)cc1)N1CCCC1: > 100 µM
COc1ccc(-c2[nH]c3ccccc3c2SCCNC(=O)c2ccc(S(=O)(=O)N3CCOCC3)cc2)cc1: > 100 µM
COCCCNC(=O)c1ccc(Cn2c(SCC3CCC3)nc3ccncc32)cc1: > 100 µM
COCCCNC(=O)c1ccc(Cn2c(SCc3ccc(F)nc3)nc3ccncc32)cc1: > 100 µM

Query: Annotate the compound COCCCNC(=O)c1ccc(Cn2c(SCc3ccc(C)cc3)nc3ccncc32)cc1 with its measured IC50 at 48 h.
Result: > 100 µM

Query: Annotate the compound CCOCCCNC(=O)c1ccc(CSc2nc3ccncc3n2Cc2cccc(OC)c2)cc1 with its measured IC50 at 48 h.
Result: > 100 µM

Query: Annotate the compound CCCc1ccc(Cn2c(SCC3CCCCC3)nc3ccncc32)cc1 with its measured IC50 at 48 h.
Result: 87.6 µM

Query: Annotate the compound CCCCNC(=O)c1ccc(Cn2c(SCC3CCCCC3)nc3ccncc32)cc1 with its measured IC50 at 48 h.
Result: > 100 µM

Query: Annotate the compound CC(=O)Nc1ccc(Cn2c(SCC3CCCCC3)nc3ccncc32)cc1 with its measured IC50 at 48 h.
Result: > 100 µM

Query: Annotate the compound COCCCNC(=O)c1ccc(Cn2c(SCc3cccc(C)c3)nc3ccncc32)cc1 with its measured IC50 at 48 h.
Result: > 100 µM

Query: Annotate the compound COC(=O)CCCCn1c(SCC2CCCCC2)nc2ccncc21 with its measured IC50 at 48 h.
Result: > 100 µM

----------
Measured MRT last at 24 h of individual entries
PROCEDURE TEXT: MRT (0 to t) in Sprague-Dawley rat at 20 mg/kg, IG measured upto 1440 mins by LC-MS/MS analysis
Format: ADME, organism-based
MEASUREMENT CONDITIONS: in vivo, po

COCCCNC(=O)c1ccc(Cn2c(SCC3CCCCC3)nc3ccncc32)cc1: 2.31 h

Query: Annotate the compound O=C(c1ccc(Cn2c(SCC3CCCCC3)nc3ccncc32)cc1)N1CCNCC1 with its measured MRT last at 24 h.
Result: 2.89 h

----------
PROCEDURE TEXT: AUC (0 to t) in Sprague-Dawley rat at 20 mg/kg, IG measured upto 1440 mins by LC-MS/MS analysis
Type: ADME, organism-based
MEASUREMENT CONDITIONS: in vivo, po
READOUT TYPE: AUC(0-t) at 24 h (ng·h/mL)
Kindly provide the numeric value in ng·h/mL only, without the unit symbol.

COCCCNC(=O)c1ccc(Cn2c(SCC3CCCCC3)nc3ccncc32)cc1: 837

// below: AUC(0-t) at 24 h requested for another molecule
Query: Annotate the molecule O=C(c1ccc(Cn2c(SCC3CCCCC3)nc3ccncc32)cc1)N1CCNCC1 with its measured AUC(0-t) at 24 h.
Result: 733

----------
PROCEDURE TEXT: AUC (0 to infinity) in Sprague-Dawley rat at 20 mg/kg, IG measured upto 1440 mins by LC-MS/MS analysis
Format: ADME, organism-based
MEASUREMENT CONDITIONS: in vivo, po
READOUT TYPE: AUC(0-inf) (ng·h/mL)
Kindly provide the numeric value in ng·h/mL only, without the unit symbol.

O=C(c1ccc(Cn2c(SCC3CCCCC3)nc3ccncc32)cc1)N1CCNCC1: 906

// below: AUC(0-inf) requested for another molecule
Query: Annotate the molecule COCCCNC(=O)c1ccc(Cn2c(SCC3CCCCC3)nc3ccncc32)cc1 with its measured AUC(0-inf).
Result: 867

----------
PROCEDURE TEXT: MRT (0 to infinity) in Sprague-Dawley rat at 20 mg/kg, ip measured upto 720 mins by LC-MS/MS analysis
Assay type: ADME, organism-based
MEASUREMENT CONDITIONS: in vivo
Measured MRT inf of individual entries
Kindly provide the numeric value in h only, without the unit symbol.

O=C(c1ccc(Cn2c(SCC3CCCCC3)nc3ccncc32)cc1)N1CCNCC1: 1.32

Query: Annotate the molecule COCCCNC(=O)c1ccc(Cn2c(SCC3CCCCC3)nc3ccncc32)cc1 with its measured MRT inf.
Result: 0.742

----------
PROCEDURE TEXT: Apparent volume of distribution during terminal phase in Sprague-Dawley rat at 20 mg/kg, ip measured upto 720 mins by LC-MS/MS analysis
Type: ADME, organism-based
MEASUREMENT CONDITIONS: in vivo, read-out: Vz/F
READOUT TYPE: Vd/F (L/kg)
Kindly provide the numeric value in L/kg only, without the unit symbol.

O=C(c1ccc(Cn2c(SCC3CCCCC3)nc3ccncc32)cc1)N1CCNCC1: 4.96

Query: Annotate the molecule COCCCNC(=O)c1ccc(Cn2c(SCC3CCCCC3)nc3ccncc32)cc1 with its measured Vd/F.
Result: 2.8

----------
PROCEDURE TEXT: Cytotoxicity against human THP-1 cells assessed as cellular proliferation inhibition measured after 48 hrs by MTT assay
Type: toxicity, cell-based
READOUT TYPE: IC50 at 48 h

For orientation, consider the following solved cases.
O=C(c1ccccc1)c1ccc(Cn2c(SCC3CCCCC3)nc3ccncc32)cc1: 72.4 µM
COc1ccc(N2CCN(CCCNC(=O)COCc3cc(-c4ccc5c(c4)OCO5)on3)CC2)cc1: 85.2 µM
CNC(=O)CCn1c(SCC2CCCCC2)nc2ccncc21: > 100 µM
CCCNC(=O)CCCCn1c(=O)c2ccccc2n(CC(=O)NCc2ccc(F)cc2)c1=O: > 100 µM
COCCCNC(=O)c1ccc(Cn2c(SCc3cccc([N+](=O)[O-])c3)nc3ccncc32)cc1: > 100 µM
COCCCNC(=O)c1ccc(Cn2c(SCc3ccncc3)nc3ccncc32)cc1: > 100 µM

Query: Annotate the compound CC(C)(O)c1coc(S(=O)(=O)NC(=O)Nc2c3c(cc4c2CCC4)CCC3)c1 with its measured IC50 at 48 h.
Result: > 100 µM

Query: Annotate the compound COCCCNC(=O)c1ccc(Cn2c(SCC3CCCC3)nc3ccncc32)cc1 with its measured IC50 at 48 h.
Result: > 100 µM

Query: Annotate the compound COCCCNC(=O)c1ccc(Cn2c(SCc3cccnc3)nc3ccncc32)cc1 with its measured IC50 at 48 h.
Result: > 100 µM

Query: Annotate the compound O=C(c1ccc(Cn2c(SCC3CCCCC3)nc3ccncc32)cc1)N1CCNCC1 with its measured IC50 at 48 h.
Result: > 100 µM
